Target: bovine spleen Cathepsin B (Bos taurus)
Construct: bovine spleen Cathepsin B (SigmaAldrich C6286, ≥10 units/mg protein); purchased SigmaAldrich C6286; host or cells: bovine spleen (tissue-derived)
Test: Cathepsin B cleavage assay (UHPLC-HRMS Orbitrap analysis)
Type: biochemical
Settings: replicate R3, 120 min
Excerpt: […]
Starred links: 1 amine or outer side, 2 acyl side, 3 side chain; linkers in the order of their positions; H or OH if unused. Non-standard residues stand in square brackets, D forms with d. Residues, ends and D or L forms follow the SMILES beside them. *: point of attachment. Paclitaxel(2'-OCO-DMEDA) = CC(=O)O[C@H]1C(=O)[C@@]2(C)[C@H]([C@H](OC(=O)c3ccccc3)[C@]3(O)C[C@H](OC(=O)[C@H](OC(=O)N(C)CCN(C)*)[C@@H](NC(=O)c4ccccc4)c4ccccc4)C(C)=C1C3(C)C)[C@]1(OC(C)=O)CO[C@@H]1C[C@@H]2O; Fmoc = O=C(OCC1c2ccccc2-c2ccccc21)*; PABC = O=C(OCc1ccc(N[*:1])cc1)[*:2]
Kindly supply the reported % residual compound, % R3 values for the records listed here.
Report the figure in % without appending any unit label.

Input line: I'd like to know its % residual compound, % R3. The molecule in question is CC(=O)O[C@H]1C(=O)[C@@]2(C)[C@H]([C@H](OC(=O)c3ccccc3)[C@]3(O)C[C@H](OC(=O)[C@H](OC(=O)N(C)CCN(C)C(=O)OCc4ccc(NC(=O)CNC(=O)[C@H](CC(C)C)NC(=O)[C@H](Cc5ccccc5)NC(=O)CNC(=O)OCC5c6ccccc6-c6ccccc65)cc4)[C@@H](NC(=O)c4ccccc4)c4ccccc4)C(C)=C1C3(C)C)[C@]1(OC(C)=O)CO[C@@H]1C[C@@H]2O [Compound 2, Fmoc-GFLG-PABC-diamine-PTX] (Fmoc-GFLG[PABC]-{Paclitaxel(2'-OCO-DMEDA)})
Output line: 90.86

Input line: GET /values?readout=% residual compound, % R3&item= CC(=O)O[C@H]1C(=O)[C@@]2(C)[C@H]([C@H](OC(=O)c3ccccc3)[C@]3(O)C[C@H](OC(=O)[C@H](OC(=O)N(C)CCN(C)C(=O)OCc4ccc(NC(=O)CNC(=O)[C@H](CC(C)C)NC(=O)[C@@H]5CCCN5C(=O)CNC(=O)OCC5c6ccccc6-c6ccccc65)cc4)[C@@H](NC(=O)c4ccccc4)c4ccccc4)C(C)=C1C3(C)C)[C@]1(OC(C)=O)CO[C@@H]1C[C@@H]2O [Compound 1, Fmoc-GPLG-PABC-diamine-PTX] (Fmoc-GPLG[PABC]-{Paclitaxel(2'-OCO-DMEDA)})
Output line: 67.07

Input line: For the molecule shown here, CC(=O)O[C@H]1C(=O)[C@@]2(C)[C@H]([C@H](OC(=O)c3ccccc3)[C@]3(O)C[C@H](OC(=O)[C@H](OC(=O)N(C)CCN(C)C(=O)OCc4ccc(NC(=O)[C@H](C)NC(=O)[C@@H](NC(=O)OCC5c6ccccc6-c6ccccc65)C(C)C)cc4)[C@@H](NC(=O)c4ccccc4)c4ccccc4)C(C)=C1C3(C)C)[C@]1(OC(C)=O)CO[C@@H]1C[C@@H]2O [Compound 4, Fmoc-VA-PABC-diamine-PTX] , give the reported % residual compound, % R3.
Output line: 52.91

Input line: Would you kindly share the measured % residual compound, % R3 for CC(=O)O[C@H]1C(=O)[C@@]2(C)[C@H]([C@H](OC(=O)c3ccccc3)[C@]3(O)C[C@H](OC(=O)[C@H](OC(=O)N(C)CCN(C)C(=O)OCc4ccc(NC(=O)[C@H](CCCNC(N)=O)NC(=O)[C@@H](NC(=O)OCC5c6ccccc6-c6ccccc65)C(C)C)cc4)[C@@H](NC(=O)c4ccccc4)c4ccccc4)C(C)=C1C3(C)C)[C@]1(OC(C)=O)CO[C@@H]1C[C@@H]2O [Compound 3, Fmoc-VCit-PABC-diamine-PTX] ?
Output line: 81.32
